- Tested on: 292921-168-R-J2-PDC KRAS tumor spheroid viability
- assay explanation: Anticancer human tumor 292921-168-R-J2-PDC patient-derived pancreatic carcinoma cell line growth inhibition [KRAS2]
- experimental conditions: curve of first compound; second compound 0.1 µM; spheroids with HUVEC and MSC
pIC50: −log10 of the molar value.
readout type: pIC50

Solved cases below.
- molecule: "CN(C)C/C=C/C(=O)Nc1cc2c(Nc3ccc(F)c(Cl)c3)ncnc2cc1O[C@H]1CCOC1 + COc1cc2nc(C)nc(NC(C)c3cc(N)cc(C(F)(F)F)c3)c2cc1OC1CCOC1"
  readout type: "pIC50"
  value: "< 7.00"
- molecule: "CC1COCCN1c1cc(-c2ccnn2C)c2ccnc(-c3ccn[nH]3)c2n1 (stereo not given) + C=CC(=O)N1CCN(c2nc(=O)n(-c3c(C)ccnc3C(C)C)c3nc(-c4c(O)cccc4F)c(F)cc23)C(C)C1"
  readout type: "pIC50"
  value: "> 8.00"
- molecule: "Cn1ncnc1[C@H]1c2n[nH]c(=O)c3cc(F)cc(c23)N[C@@H]1c1ccc(F)cc1 + CC1OCC2(CCN(c3cnc(Sc4ccnc(N)c4Cl)c(N)n3)CC2)C1N"
  readout type: "pIC50"
  value: "< 7.00"
- molecule: "COc1cc(Nc2ncc3c(n2)-c2ccc(Cl)cc2C(c2c(F)cccc2OC)=NC3)ccc1C(=O)O + C=CC(=O)N1CCN(c2nc(=O)n(-c3c(C)ccnc3C(C)C)c3nc(-c4c(O)cccc4F)c(F)cc23)C(C)C1"
  readout type: "pIC50"
  value: "> 7.50"
- molecule: "CC1COCCN1c1cc(-c2ccnn2C)c2ccnc(-c3ccn[nH]3)c2n1 (stereo not given) + C=CC(=O)N1CCN(c2nc(OCC3CCCN3C)nc3c2CCN(c2cccc4cccc(C)c24)C3)CC1CC#N"
  readout type: "pIC50"
  value: "> 8.00"
- molecule: "CC(C)NCC(C(=O)N1CCN(c2ncnc3c2C(C)CC3O)CC1)c1ccc(Cl)cc1 (stereo not given) + C=CC(=O)N1CCN(c2nc(=O)n(-c3c(C)ccnc3C(C)C)c3nc(-c4c(O)cccc4F)c(F)cc23)C(C)C1"
  readout type: "pIC50"
  value: "< 5.00"

The following molecules each have a reported value; give each one's pIC50.
1. CC1COCCN1c1cc(-c2ccnn2C)c2ccnc(-c3ccn[nH]3)c2n1 (stereo not given) + CC1OCC2(CCN(c3cnc(Sc4ccnc(N)c4Cl)c(N)n3)CC2)C1N
2. CN(C)C/C=C/C(=O)Nc1cc2c(Nc3ccc(F)c(Cl)c3)ncnc2cc1O[C@H]1CCOC1 + C=CC(=O)N1CCN(c2nc(OCC3CCCN3C)nc3c2CCN(c2cccc4cccc(C)c24)C3)CC1CC#N
3. Cn1ncnc1[C@H]1c2n[nH]c(=O)c3cc(F)cc(c23)N[C@@H]1c1ccc(F)cc1 + C=CC(=O)N1CCN(c2nc(OCC3CCCN3C)nc3c2CCN(c2cccc4cccc(C)c24)C3)CC1CC#N
4. CC(=O)OC12COC1CC(O)C1(C)C(=O)C(O)C3=C(C)C(OC(=O)C(O)C(NC(=O)OC(C)(C)C)c4ccccc4)CC(O)(C(OC(=O)c4ccccc4)C21)C3(C)C (stereo not given) + CC1OCC2(CCN(c3cnc(Sc4ccnc(N)c4Cl)c(N)n3)CC2)C1N

1. > 8.00
2. < 7.00
3. < 7.00
4. > 8.00

----------
- System: 292921-168-R-J2-PDC KRAS tumor spheroid viability
- assay explanation: Anticancer human tumor 292921-168-R-J2-PDC cell line growth inhibition [KRAS2];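 also: drug exposure lasted seven days after spheroids formed for three days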
- experimental conditions: curve of first compound; second compound 1 µM; spheroids with HUVEC and MSC
What IC50 was measured for each of the following?

The following compounds each have a reported value; give each one's IC50.
1. CC1OCC2(CCN(c3cnc(Sc4ccnc(N)c4Cl)c(N)n3)CC2)C1N (stereo unspecified) + C=CC(=O)N1CCN(c2nc(OCC3CCCN3C)nc3c2CCN(c2cccc4cccc(C)c24)C3)CC1CC#N
2. COc1cc(Nc2ncc3c(n2)-c2ccc(Cl)cc2C(c2c(F)cccc2OC)=NC3)ccc1C(=O)O + CNCc1ccccc1-c1csc(C(C)Nc2nc(C)nc3cc(OC)c(OC)cc23)c1
3. CC(=O)Nc1cccc(-n2c(=O)n(C3CC3)c(=O)c3c(Nc4ccc(I)cc4F)n(C)c(=O)c(C)c32)c1 + C=CC(=O)N1CCN(c2nc(OCC3CCCN3C)nc3c2CCN(c2cccc4cccc(C)c24)C3)CC1CC#N

< 31.6 nM
< 31.6 nM
< 0.1 nM

The following compounds each have a reported value; give each one's IC50.
1. CC(C)n1nc(-c2ccc3oc(N)nc3c2)c2c(N)ncnc21 + C=CC(=O)N1CCN(c2nc(OCC3CCCN3C)nc3c2CCN(c2cccc4cccc(C)c24)C3)CC1CC#N
2. COc1cc2nccc(Oc3ccc(NC(=O)C4(C(=O)Nc5ccc(F)cc5)CC4)cc3)c2cc1OC + C=CC(=O)N1CCN(c2nc(OCC3CCCN3C)nc3c2CCN(c2cccc4cccc(C)c24)C3)CC1CC#N
3. CC(=O)OC12COC1CC(O)C1(C)C(=O)C(O)C3=C(C)C(OC(=O)C(O)C(NC(=O)OC(C)(C)C)c4ccccc4)CC(O)(C(OC(=O)c4ccccc4)C21)C3(C)C (stereo unspecified) + C=CC(=O)N1CCN(c2nc(=O)n(-c3c(C)ccnc3C(C)C)c3nc(-c4c(O)cccc4F)c(F)cc23)C(C)C1
4. Cn1ncnc1[C@H]1c2n[nH]c(=O)c3cc(F)cc(c23)N[C@@H]1c1ccc(F)cc1 + C=CC(=O)N1CCN(c2nc(=O)n(-c3c(C)ccnc3C(C)C)c3nc(-c4c(O)cccc4F)c(F)cc23)C(C)C1
5. COc1cc2nccc(Oc3ccc(NC(=O)C4(C(=O)Nc5ccc(F)cc5)CC4)cc3)c2cc1OC + CC1OCC2(CCN(c3cnc(Sc4ccnc(N)c4Cl)c(N)n3)CC2)C1N
6. Cn1nccc1Nc1nccc(-c2cc3c(s2)C(C)(C)N(CCN2CCOCC2)C3=O)n1 + C=CC(=O)N1CCN(c2nc(OCC3CCCN3C)nc3c2CCN(c2cccc4cccc(C)c24)C3)CC1CC#N

< 0.316 nM
< 31.6 nM
< 10 nM
> 100 nM
< 31.6 nM
< 31.6 nM

The following compounds each have a reported value; give each one's IC50.
1. CN(C)C/C=C/C(=O)Nc1cc2c(Nc3ccc(F)c(Cl)c3)ncnc2cc1O[C@H]1CCOC1 + COc1cc2nc(C)nc(NC(C)c3cc(N)cc(C(F)(F)F)c3)c2cc1OC1CCOC1
2. CC(=O)OC12COC1CC(O)C1(C)C(=O)C(O)C3=C(C)C(OC(=O)C(O)C(NC(=O)OC(C)(C)C)c4ccccc4)CC(O)(C(OC(=O)c4ccccc4)C21)C3(C)C (stereo unspecified) + C=CC(=O)N1CCN(c2nc(OCC3CCCN3C)nc3c2CCN(c2cccc4cccc(C)c24)C3)CC1CC#N

> 100 nM
< 10 nM

----------
- System: 292921-168-R-J2-PDC KRAS tumor spheroid viability
- assay explanation: Anticancer human tumor 292921-168-R-J2-PDC cell line growth inhibition [KRAS2]; active = viability on the fitted dose curve at most 10% of control; inactive = the rest;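 also: drug exposure lasted seven days after spheroids formed for three days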
- experimental conditions: second compound 0.316 µM; first compound 0.1 µM; spheroids with HUVEC and MSC
Use one of these outcomes when replying: 1 = active, 0 = inactive

- compound: "CN(C)C/C=C/C(=O)Nc1cc2c(Nc3ccc(F)c(Cl)c3)ncnc2cc1O[C@H]1CCOC1 + CC1OCC2(CCN(c3cnc(Sc4ccnc(N)c4Cl)c(N)n3)CC2)C1N"
  group label: 0
- compound: "CC1OCC2(CCN(c3cnc(Sc4ccnc(N)c4Cl)c(N)n3)CC2)C1N (stereo not drawn) + C=CC(=O)N1CCN(c2nc(OCC3CCCN3C)nc3c2CCN(c2cccc4cccc(C)c24)C3)CC1CC#N"
  group label: 0
- compound: "CC(C)n1nc(-c2ccc3oc(N)nc3c2)c2c(N)ncnc21 + CNCc1ccccc1-c1csc(C(C)Nc2nc(C)nc3cc(OC)c(OC)cc23)c1"
  group label: 0
- compound: "CC1(C)CCC(CN2CCN(c3ccc(C(=O)NS(=O)(=O)c4ccc(NCC5CCOCC5)c([N+](=O)[O-])c4)c(Oc4cnc5[nH]ccc5c4)c3)CC2)=C(c2ccc(Cl)cc2)C1 + C=CC(=O)N1CCN(c2nc(=O)n(-c3c(C)ccnc3C(C)C)c3nc(-c4c(O)cccc4F)c(F)cc23)C(C)C1"
  group label: 0

Recorded test outcome, item CC1COCCN1c1cc(-c2ccnn2C)c2ccnc(-c3ccn[nH]3)c2n1 (stereo not drawn) + COc1cc2nc(C)nc(NC(C)c3cc(N)cc(C(F)(F)F)c3)c2cc1OC1CCOC1 0

Consider next the compound CC1COCCN1c1cc(-c2ccnn2C)c2ccnc(-c3ccn[nH]3)c2n1 (stereo not drawn) + CC1OCC2(CCN(c3cnc(Sc4ccnc(N)c4Cl)c(N)n3)CC2)C1N in the same way. 0

Consider next the compound CC1COCCN1c1cc(-c2ccnn2C)c2ccnc(-c3ccn[nH]3)c2n1 (stereo not drawn) + C=CC(=O)N1CCN(c2nc(OCC3CCCN3C)nc3c2CCN(c2cccc4cccc(C)c24)C3)CC1CC#N in the same way. 1

Consider next the compound CN(C)C/C=C/C(=O)Nc1cc2c(Nc3ccc(F)c(Cl)c3)ncnc2cc1O[C@H]1CCOC1 + C=CC(=O)N1CCN(c2nc(OCC3CCCN3C)nc3c2CCN(c2cccc4cccc(C)c24)C3)CC1CC#N in the same way. 0

Reference source for all entries: PubChem BioAssay AID1963870
